Data origin: patent US12173188B2

TEST: Solubility in distilled water at 25° C.
CONDITION_PARAMETERS: 24 hours standing
For each entry below, report its Solubility (25° C.) value.
The figure you give is taken to be in % by mass; do not add the unit.

Field Solubility (25° C.) (entry N#CC(C(=O)c1ccccc1)=C1Sc2c(OCCCS(=O)(=O)[O-])ccc(OCCCS(=O)(=O)[O-])c2S1.[Na+].[Na+] ) reads 2.9

// recorded Solubility (25° C.) for CCCCOc1ccc(OCCCC)c2c1SC(=C1C(=O)N(CCCCC(=O)[O-])N(CCCCC(=O)[O-])C1=O)S2.[Na+].[Na+] : 2.9

Briefly, Solubility (25° C.) measured for CC(C)(C)C(=O)C(C#N)=C1Sc2c(OCCCCS(=O)(=O)[O-])ccc(OCCCCS(=O)(=O)[O-])c2S1.[Na+].[Na+] : 3.2

Lab note: measured Solubility (25° C.) of N#CC(C#N)=C1Sc2c(OCCCCS(=O)(=O)[O-])ccc(OCCCCS(=O)(=O)[O-])c2S1.[Na+].[Na+] was 3.1

The value of Solubility (25° C.) measured for the compound CCCCOc1ccc(OCCCCS(=O)(=O)[O-])c2c1SC(=C1C(=O)N(CCCCS(=O)(=O)[O-])N(CCCCS(=O)(=O)[O-])C1=O)S2.[Na+].[Na+].[Na+] turned out to be 3.7

Measured Solubility (25° C.) of N#CC(C#N)=C1Sc2c(OC(=O)CCC(=O)[O-])ccc(OC(=O)CCC(=O)[O-])c2S1.[Na+].[Na+] : 2.6

Quick note, Solubility (25° C.) for CCCCOc1ccc(OCCCC)c2c1SC(=C(C#N)C(=O)OCCCCP(=O)(O)O)S2 landed at 1.9

Reported Solubility (25° C.) for CCCCN1C(=O)C(=C2Sc3c(OCCCCP(=O)(O)O)ccc(OCCCCP(=O)(O)O)c3S2)C(=O)N1CCCC was 3.0

Given item CON=CC(C#N)=C1Sc2c(OCCCCS(=O)(=O)[O-])ccc(OCCCCS(=O)(=O)[O-])c2S1.[Na+].[Na+] , the value recorded as its Solubility (25° C.) is 3.1

The compound listed as CCCCOc1ccc(OCCCC)c2c1SC(=C(C#N)C(=O)OCCCCS(=O)(=O)[O-])S2.[Na+] has a reported Solubility (25° C.) of 2.1

# Solubility (25° C.) (compound: CCCCN1C(=O)C(=C2Sc3c(OCCCS(=O)(=O)[O-])ccc(OCCCS(=O)(=O)[O-])c3S2)C(=O)N1CCCC.[Na+].[Na+] ) is 3.6

Solubility (25° C.) reading for N#CC(C#N)=C1Sc2c(OCCCCP(=O)(O)O)ccc(OCCCCP(=O)(O)O)c2S1 : 2.0

Looking up CCCCC(CC)COc1ccc(OCC(CC)CCCC)c2c1SC(=C1C(=O)N(CCCCS(=O)(=O)[O-])N(CCCCS(=O)(=O)[O-])C1=O)S2.[Na+].[Na+] (stereo not shown) , I see its Solubility (25° C.) listed as 2.9

Looking up O=C1C(=C2Sc3c(OCCCCS(=O)(=O)[O-])ccc(OCCCCS(=O)(=O)[O-])c3S2)C(=O)N(c2ccccc2)N1c1ccccc1.[Na+].[Na+] , I see its Solubility (25° C.) listed as 3.3

Form field Solubility (25° C.), entry CCCCOc1ccc(OCCCC)c2c1SC(=C1C(=O)N(CCCCP(=O)(O)O)N(CCCCP(=O)(O)O)C1=O)S2 : 3.0

Entry O=C1C(=C2Sc3c(OCCS(=O)(=O)[O-])ccc(OCCS(=O)(=O)[O-])c3S2)C(=O)N(CCCS(=O)(=O)[O-])N1CCCS(=O)(=O)[O-].[Na+].[Na+].[Na+].[Na+] — recorded Solubility (25° C.) = 2.9

###

TEST: Moist heat resistance test of laminate (60° C., 90% RH, 160 hours)
Format: physicochemical
CONDITION_PARAMETERS: after 160 hours at 60° C., 90% RH; 5.0 parts agent/45.0 parts PVA film
Please go through the items and note down their Haze after moist heating.
Write the value in % as a bare number.

Given item N#CC(C#N)=C1Sc2c(OC(=O)CCC(=O)[O-])ccc(OC(=O)CCC(=O)[O-])c2S1.[Na+].[Na+] [Compound M-8] , the value recorded as its Haze after moist heating is 0.4

Per the records, this molecule ( CCCCN1C(=O)C(=C2Sc3c(OCCCCS(=O)(=O)[O-])c4c(c(OCCCCS(=O)(=O)[O-])c3S2)SC(=C2C(=O)N(CCCC)N(CCCC)C2=O)S4)C(=O)N1CCCC.[Na+].[Na+] [Compound H-4, reference compound] ) has Haze after moist heating equal to 18

Consider O=S(=O)([O-])CCNc1nc(NCCS(=O)(=O)[O-])nc(Nc2ccc(C=Cc3ccc(Nc4nc(NCCS(=O)(=O)[O-])nc(NCCS(=O)(=O)[O-])n4)cc3S(=O)(=O)[O-])c(S(=O)(=O)[O-])c2)n1.[Na+].[Na+].[Na+].[Na+].[Na+].[Na+] [Compound H-3, reference compound] . Its measured Haze after moist heating is 9.5

// Haze after moist heating value for O=C(c1ccc(O)cc1O)c1ccc(O)cc1O [Compound H-1, reference compound] : 6.1

Lab note: CCCCC(CC)COc1ccc(OCC(CC)CCCC)c2c1SC(=C1C(=O)N(CCCC)N(CCCC)C1=O)S2 (centres unmarked) [Compound H-5, reference compound] gave Haze after moist heating of 68

Data point: CON=CC(C#N)=C1Sc2c(OCCCCS(=O)(=O)[O-])ccc(OCCCCS(=O)(=O)[O-])c2S1.[Na+].[Na+] [Compound M-5] ; Haze after moist heating = 0.28

Haze after moist heating reported for this molecule CCCCN1C(=O)C(=C2Sc3c(OCCCCS(=O)(=O)[O-])ccc(OCCCCS(=O)(=O)[O-])c3S2)C(=O)N1CCCC.[Na+].[Na+] [Compound M-11] : 0.26

The molecule identified as N#CC(C#N)=C1Sc2c(OCCCCS(=O)(=O)[O-])ccc(OCCCCS(=O)(=O)[O-])c2S1.[Na+].[Na+] [Compound M-3] registered its Haze after moist heating at 0.24

###

TEST: Moist heat resistance test of laminate (60° C., 90% RH, 160 hours)
Format: physicochemical
CONDITION_PARAMETERS: after 160 hours at 60° C., 90% RH; 2.0 parts agent/98.0 parts PVA film
Field: Haze after moist heating. Provide a value for each of the molecules that follow.
Answer format: numeric, % implied, no suffix.

N#CC(C#N)=C1Sc2c(OCCCCS(=O)(=O)[O-])ccc(OCCCCS(=O)(=O)[O-])c2S1.[Na+].[Na+] [Compound M-3] yielded Haze after moist heating of 0.1

The molecule identified as N#CC(C#N)=C1Sc2c(OC(=O)CCC(=O)[O-])ccc(OC(=O)CCC(=O)[O-])c2S1.[Na+].[Na+] [Compound M-8] registered its Haze after moist heating at 0.3

Entry CCCCN1C(=O)C(=C2Sc3c(OCCCCS(=O)(=O)[O-])ccc(OCCCCS(=O)(=O)[O-])c3S2)C(=O)N1CCCC.[Na+].[Na+] [Compound M-11] — recorded Haze after moist heating = 0.1
